- PROTOCOL_TEXT: TLR3 IRF3 reporter activation blockers – cell-based, poly I:C stimulus, luciferase, 10K MLSCN set, primary screen (AID 602277)
- COND: HEK293-TLR3 RL24 IRF3 luciferase reporter, at 10 µM, hits give high values
Consider the following compounds; for each one, report its inhibition.
Report as a plain number; the unit % is understood.

(Q) Consider the compound COC(=O)c1ccc2c(c1)C(=O)N(C1CCCCC1)C2=O and give its measured inhibition.
(A) 13.8

(Q) Consider the compound Cc1c(C(=O)NCc2ccccc2)oc2c1C(=O)CCC2 and give its measured inhibition.
(A) -7.05

(Q) Consider the compound COc1ccc(CC(NC(C)=O)C(=O)N2CCN(C(=O)N(C(C)C)C(C)C)CC2)cc1 (stereo unspecified) and give its measured inhibition.
(A) 3.57

(Q) Consider the compound Cn1c(=O)c(C(=O)Nc2cccnc2)c(O)c2ccccc21 and give its measured inhibition.
(A) -42.3

(Q) Consider the compound O=C(Cn1cnc2c(nnn2Cc2ccc(Cl)cc2)c1=O)NCC1CCCO1 (stereo unspecified) and give its measured inhibition.
(A) 26

(Q) Consider the compound CCN(CC)CCNC(=O)CCn1c(=S)[nH]c2cc3c(cc2c1=O)OCO3 and give its measured inhibition.
(A) 28.2

(Q) Consider the compound CCOc1ccc(N(CC(=O)NCc2cccc(OC)c2)S(=O)(=O)c2c(C)noc2C)cc1 and give its measured inhibition.
(A) -5.65

(Q) Consider the compound CC1CCN(C(=O)CCNS(=O)(=O)c2ccccc2)CC1 and give its measured inhibition.
(A) -31.3

(Q) Consider the compound CCOC(=O)c1ccc2ncc(C(=O)OCC)c(NCCN(C)C)c2c1 and give its measured inhibition.
(A) 44

(Q) Consider the compound CC(C)CCNC(=O)C1CCN(C(=O)N(C)C)CC1 and give its measured inhibition.
(A) 19.5

(Q) Consider the compound O=C(NCC(c1cccnc1)N1CCOCC1)c1ccco1 (stereo unspecified) and give its measured inhibition.
(A) 31
